# protocol notes: xn = mol fraction of the nth substance listed
# assay setup: 323.2 K; 101 kPa; Liquid; Taylor dispersion method; x1 = 0
Measured binary diffusion coefficient, listed per entry.
measurement name: binary diffusion coefficient

> print(dat)
                                    compound        reading
 1  CCC(N)C(=O)O (stereo not drawn) [(.+-.)-α-aminobutyric acid] + O  1.49e-09 m2/s
 2  CC[C@@H](C)[C@H](N)C(=O)O [allo-L-isoleucine] + O  1.33e-09 m2/s
 3  CCC[C@H](N)C(=O)O [(S)-2-aminopentanoic acid] + O  1.39e-09 m2/s
 4        CC(C)[C@H](N)C(=O)O [L-valine] + O   1.4e-09 m2/s
 5  CC[C@H](C)[C@H](N)C(=O)O [2-amino-3-methylpentanoic acid] + O  1.33e-09 m2/s
 6  CC(C)(C)C(N)C(=O)O (stereo not drawn) [DL-tert-leucine] + O  1.33e-09 m2/s
 7         NCC(=O)O [2-aminoacetic acid] + O  1.86e-09 m2/s
 8  C[C@H](N)C(=O)O [(S)-2-aminopropanoic acid] + O  1.63e-09 m2/s
 9  CCCCC(N)C(=O)O (stereo not given) [2-aminohexanoic acid] + O  1.32e-09 m2/s
10      CC(C)C[C@H](N)C(=O)O [L-leucine] + O  1.33e-09 m2/s

* * *

# protocol notes: xn = mol fraction of the nth substance listed
# assay setup: 293.2 K; 101 kPa; Liquid; Taylor dispersion method; x1 = 0
measurement name: binary diffusion coefficient (m2/s)

> print(dat)
                                    compound              measurement.name  units.of.measure   reading
 1  CC(C)(C)C(N)C(=O)O (stereo not drawn) [DL-tert-leucine] + O  binary diffusion coefficient              m2/s  6.31e-10
 2  CCCCC(N)C(=O)O (stereo not given) [2-aminohexanoic acid] + O  binary diffusion coefficient              m2/s  6.41e-10
 3  CCC[C@H](N)C(=O)O [(S)-2-aminopentanoic acid] + O  binary diffusion coefficient              m2/s  6.77e-10
 4  CC[C@@H](C)[C@H](N)C(=O)O [allo-L-isoleucine] + O  binary diffusion coefficient              m2/s  6.42e-10
 5  C[C@H](N)C(=O)O [(S)-2-aminopropanoic acid] + O  binary diffusion coefficient              m2/s  8.06e-10
 6      CC(C)C[C@H](N)C(=O)O [L-leucine] + O  binary diffusion coefficient              m2/s  6.41e-10
 7         NCC(=O)O [2-aminoacetic acid] + O  binary diffusion coefficient              m2/s  9.36e-10
 8  CCC(N)C(=O)O (stereo not drawn) [(.+-.)-α-aminobutyric acid] + O  binary diffusion coefficient              m2/s  7.29e-10
 9  CC[C@H](C)[C@H](N)C(=O)O [2-amino-3-methylpentanoic acid] + O  binary diffusion coefficient              m2/s  6.41e-10
10        CC(C)[C@H](N)C(=O)O [L-valine] + O  binary diffusion coefficient              m2/s  6.76e-10

* * *

# protocol notes: xn = mol fraction of the nth substance listed
# assay setup: 303.2 K; 101 kPa; Liquid; Taylor dispersion method; x1 = 0
measurement name: binary diffusion coefficient (m2/s)

> print(dat)
                                    molecule              measurement.name  units.of.measure   reading
 1  CC(C)(C)C(N)C(=O)O (stereo not drawn) [DL-tert-leucine] + O  binary diffusion coefficient              m2/s  8.46e-10
 2  CC[C@@H](C)[C@H](N)C(=O)O [allo-L-isoleucine] + O  binary diffusion coefficient              m2/s  8.44e-10
 3  CCCCC(N)C(=O)O (stereo not given) [2-aminohexanoic acid] + O  binary diffusion coefficient              m2/s  8.27e-10
 4         NCC(=O)O [2-aminoacetic acid] + O  binary diffusion coefficient              m2/s  1.22e-09
 5        CC(C)[C@H](N)C(=O)O [L-valine] + O  binary diffusion coefficient              m2/s  8.91e-10
 6  C[C@H](N)C(=O)O [(S)-2-aminopropanoic acid] + O  binary diffusion coefficient              m2/s  1.04e-09
 7  CCC[C@H](N)C(=O)O [(S)-2-aminopentanoic acid] + O  binary diffusion coefficient              m2/s  8.79e-10
 8      CC(C)C[C@H](N)C(=O)O [L-leucine] + O  binary diffusion coefficient              m2/s  8.24e-10
 9  CC[C@H](C)[C@H](N)C(=O)O [2-amino-3-methylpentanoic acid] + O  binary diffusion coefficient              m2/s  8.36e-10
10  CCC(N)C(=O)O (stereo not drawn) [(.+-.)-α-aminobutyric acid] + O  binary diffusion coefficient              m2/s  9.48e-10

* * *

# protocol notes: xn = mol fraction of the nth substance listed
# assay setup: 313.2 K; 101 kPa; Liquid; Taylor dispersion method; x1 = 0
Quick reference: binary diffusion coefficient of the listed items.
measurement name: binary diffusion coefficient (m2/s)

> print(dat)
                                   molecule              measurement.name  units.of.measure   reading
1  CCCCC(N)C(=O)O (centres undefined) [2-aminohexanoic acid] + O  binary diffusion coefficient              m2/s  1.07e-09
2  CCC(N)C(=O)O (stereo not drawn) [(.+-.)-α-aminobutyric acid] + O  binary diffusion coefficient              m2/s   1.2e-09
3         NCC(=O)O [2-aminoacetic acid] + O  binary diffusion coefficient              m2/s   1.5e-09
4  CC[C@@H](C)[C@H](N)C(=O)O [allo-L-isoleucine] + O  binary diffusion coefficient              m2/s  1.07e-09

* * *

# protocol notes: xn = mol fraction of the nth substance listed
# assay setup: 313.2 K; 101 kPa; Liquid; Taylor dispersion method; x1 = 0
Quick list: binary diffusion coefficient per entry.
measurement name: binary diffusion coefficient (m2/s)

> print(dat)
                                   compound              measurement.name  units.of.measure   reading
1        CC(C)[C@H](N)C(=O)O [L-valine] + O  binary diffusion coefficient              m2/s  1.12e-09
2  C[C@H](N)C(=O)O [(S)-2-aminopropanoic acid] + O  binary diffusion coefficient              m2/s  1.31e-09
3  CC[C@H](C)[C@H](N)C(=O)O [2-amino-3-methylpentanoic acid] + O  binary diffusion coefficient              m2/s  1.07e-09
4      CC(C)C[C@H](N)C(=O)O [L-leucine] + O  binary diffusion coefficient              m2/s  1.07e-09
5  CCC[C@H](N)C(=O)O [(S)-2-aminopentanoic acid] + O  binary diffusion coefficient              m2/s  1.12e-09
6  CC(C)(C)C(N)C(=O)O (stereo not drawn) [DL-tert-leucine] + O  binary diffusion coefficient              m2/s  1.06e-09

* * *

# protocol notes: xn = mol fraction of the nth substance listed
# assay setup: 333.2 K; 101 kPa; Liquid; Taylor dispersion method; x1 = 0
Quick list: binary diffusion coefficient per entry.
measurement name: binary diffusion coefficient

> print(dat)
                                    molecule        reading
 1         NCC(=O)O [2-aminoacetic acid] + O  2.22e-09 m2/s
 2  C[C@H](N)C(=O)O [(S)-2-aminopropanoic acid] + O  1.96e-09 m2/s
 3  CCC(N)C(=O)O (stereo not drawn) [(.+-.)-α-aminobutyric acid] + O   1.8e-09 m2/s
 4      CC(C)C[C@H](N)C(=O)O [L-leucine] + O   1.6e-09 m2/s
 5        CC(C)[C@H](N)C(=O)O [L-valine] + O   1.7e-09 m2/s
 6  CC[C@@H](C)[C@H](N)C(=O)O [allo-L-isoleucine] + O  1.61e-09 m2/s
 7  CC(C)(C)C(N)C(=O)O (stereo not drawn) [DL-tert-leucine] + O  1.61e-09 m2/s
 8  CCC[C@H](N)C(=O)O [(S)-2-aminopentanoic acid] + O  1.69e-09 m2/s
 9  CC[C@H](C)[C@H](N)C(=O)O [2-amino-3-methylpentanoic acid] + O  1.62e-09 m2/s
10  CCCCC(N)C(=O)O (stereo not given) [2-aminohexanoic acid] + O   1.6e-09 m2/s
